Cited source: PubChem BioAssay (EPA / NIEHS)

Assay: Tanguay_ZF_120hpf_AXIS_legacy: (Legacy) Oregon State University Tanguay Lab 120 Hour Post-fertilization zebrafish Assay for Body Axis Malformation (AID 2283635)
Records with an inconclusive call do not appear. Active and inactive are the calls of the source. Rule for the calls: active = hit-call score of the fitted dose curve at least 0.9, where 1 is the maximum; inconclusive = response in the unintended direction; inactive = score below 0.9.
measurement-name: outcome

smi=CCSC(=O)N(CC(C)C)CC(C)C result=inactive
smi=C[C@]12C[C@H](O)[C@H]3[C@@H](CCC4=CC(=O)CC[C@@]43C)[C@@H]1CC[C@@H]2C(=O)CO result=inactive
smi=CCCOC(=O)NCCCN(C)C result=inactive

====

Test: ATG_GLI_CIS: Attagene CIS-FACTORIAL HepG2 Assay for human Zinc Finger Protein GLI1 (AID 2282945)
Settings: HepG2, Attagene cis-factorial reporter mRNA, GLI element; actives raise or lower the signal
Active and inactive are the calls of the source. Rule for the calls: active = hit-call score of the fitted dose curve at least 0.9, where 1 is the maximum; inactive = score below 0.9.
measurement-name: outcome

Example cases with answers are listed next.
molecule="CCC(C)OC(=O)N1CCCCC1CCO (stereo not drawn)" result=inactive
molecule=O=C(Nc1ccc([N+](=O)[O-])cc1Cl)c1cc(Cl)ccc1O result=inactive
molecule="CCOC(=O)C(C)Oc1ccc(Oc2nc3ccc(Cl)cc3o2)cc1 (stereo not drawn)" result=inactive
molecule=CCNc1nc(N)nc(Cl)n1 result=inactive
molecule=CCOC(=O)[C@H](C)Oc1ccc(Oc2nc3ccc(Cl)cc3o2)cc1 result=inactive

# query: outcome of entry `S=C([S-])NCCNC(=S)[S-].[Mn+2]`
inactive

# query: outcome of entry `CCCCCOC(=O)COc1cc(N2C(=O)C3=C(CCCC3)C2=O)c(F)cc1Cl`
inactive

# query: outcome of entry CCC(O)=C1C(=O)CC(C(=O)O)CC1=O (stereo not drawn)
inactive

# query: outcome of entry `COC(=O)CSc1cc(N=c2sc(=O)n3n2CCCC3)c(F)cc1Cl`
inactive

# query: outcome of entry CCCCC(CC)COC(=O)c1ccccc1C(=O)O (stereo not drawn)
inactive

# query: outcome of entry `O=C(O)c1ccccc1`
inactive

# query: outcome of entry `COc1c(Cl)ccc(Cl)c1C(=O)O`
inactive

# query: outcome of entry C=CCOC(Cn1ccnc1)c1ccc(Cl)cc1Cl (stereo not drawn)
inactive

====

Read-out: Apoptosis regulator Bcl-2 (Homo sapiens) (UniProt P10415)
Sequence (P10415 whole entry, looked up): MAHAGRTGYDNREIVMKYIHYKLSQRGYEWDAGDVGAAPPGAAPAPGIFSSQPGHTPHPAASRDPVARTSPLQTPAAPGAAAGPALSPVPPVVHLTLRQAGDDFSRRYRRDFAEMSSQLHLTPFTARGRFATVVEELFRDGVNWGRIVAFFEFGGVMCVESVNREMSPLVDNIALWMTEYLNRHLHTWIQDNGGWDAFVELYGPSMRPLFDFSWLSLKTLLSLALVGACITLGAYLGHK
Assay: LTEA_HepaRG_BCL2: Life Technologies and Expression Analysis (LTEA) Assay for Bcl-2 gene using HepaRG (AID 2283475);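 note: BCL2 transcript by TaqMan qRT-PCR normalised to ACTB GAPDH and POLR2A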
Settings: mRNA level, 48 h; actives raise or lower the signal
The source made the active and inactive calls. How the source made its calls: active means hit-call score of the fitted dose curve at least 0.9, where 1 is the maximum; inactive means score below 0.9.
measurement-name: AC50

compound=CCCOC(=O)NCCCN(C)C measurement_name=AC50 result=inactive
compound=COc1c(Cl)ccc(Cl)c1C(=O)O measurement_name=AC50 result=inactive
compound="CCCCOC(=O)C(C)Oc1ccc(Oc2ccc(C(F)(F)F)cn2)cc1 (centres undefined)" measurement_name=AC50 result=inactive
compound=Oc1ccc(C(c2ccc(O)cc2)C(Cl)(Cl)Cl)cc1 measurement_name=AC50 result=inactive

# query: AC50 of entry `C[C@]12C[C@H](O)[C@H]3[C@@H](CCC4=CC(=O)CC[C@@]43C)[C@@H]1CC[C@@H]2C(=O)CO`
inactive

# query: AC50 of entry CC1(C)C(C=C(Cl)Cl)C1C(=O)OCc1cccc(Oc2ccccc2)c1 (centres undefined)
inactive

# query: AC50 of entry `CCN(Cc1c(F)cccc1Cl)c1c([N+](=O)[O-])cc(C(F)(F)F)cc1[N+](=O)[O-]`
inactive

====

Molecular target: human c-Jun N-terminal Kinases (JNK2), MAPK9 (gene 5601) (UniProt P45984)
Sequence (P45984 whole entry, looked up): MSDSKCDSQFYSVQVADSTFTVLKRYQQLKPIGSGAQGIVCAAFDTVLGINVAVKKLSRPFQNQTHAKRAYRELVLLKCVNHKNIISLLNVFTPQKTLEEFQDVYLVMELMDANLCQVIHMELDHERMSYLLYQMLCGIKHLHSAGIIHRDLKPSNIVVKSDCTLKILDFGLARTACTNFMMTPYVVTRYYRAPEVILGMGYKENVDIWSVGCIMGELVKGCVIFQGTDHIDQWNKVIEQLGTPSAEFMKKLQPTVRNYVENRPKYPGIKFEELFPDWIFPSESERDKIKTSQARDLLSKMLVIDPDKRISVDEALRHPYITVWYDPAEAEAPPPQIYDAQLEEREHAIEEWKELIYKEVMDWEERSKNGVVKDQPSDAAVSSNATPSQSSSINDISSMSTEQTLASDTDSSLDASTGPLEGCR
Test: NVS_ENZ_hJNK2: NovaScreen (NVS) Enzymatic Assay for human c-Jun N-terminal Kinases (JNK2) (AID 2283171)
Records with an inconclusive call do not appear. Calls of active or inactive are those of the source. The calls were made as follows: active = hit-call score of the fitted dose curve at least 0.9, where 1 is the maximum; inconclusive = response in the unintended direction; inactive = score below 0.9.
Form entry, call: pick from yes for active, no for inactive

Hello, I am checking results. What call was entered for `CC(C)CCCCCCc1ccc(O)cc1` ?
no

Hello, I am checking results. What call was entered for `CC(C)(c1ccc(O)cc1)c1ccc(O)cc1` ?
no

Hello, I am checking results. What call was entered for `COCCO` ?
no

Hello, I am checking results. What call was entered for `O=C(O)C1(C(=O)Nc2ccc(Cl)cc2Cl)CC1` ?
yes

Hello, I am checking results. What call was entered for `S=C(S)NCCNC(=S)S.[Mn+2].[S-]C([S-])=NCCN=C([S-])[S-].[Zn+2]` ?
no

====

Read-out: Cytochrome P450 (CYP2B6), CYP2B6 (gene 1555)
Test: LTEA_HepaRG_CYP2B6: Life Technologies and Expression Analysis (LTEA) Assay for Cytochrome P450 (CYP2B6) using HepaRG (AID 2283481)
Conditions: mRNA level, 48 h; actives raise or lower the signal
Activity calls are given as the source filed them. How the source made its calls: active means hit-call score of the fitted dose curve at least 0.9, where 1 is the maximum; inactive means score below 0.9.
Form entry, call: pick from yes for active, no for inactive

Hello, I am checking results. What call was entered for CCCCC(CC)COC(=O)c1ccccc1C(=O)O (stereo unspecified) ?
yes

Hello, I am checking results. What call was entered for `COC(=O)CSc1cc(N=c2sc(=O)n3n2CCCC3)c(F)cc1Cl` ?
yes

Hello, I am checking results. What call was entered for `C[C@]12C[C@H](O)[C@H]3[C@@H](CCC4=CC(=O)CC[C@@]43C)[C@@H]1CC[C@@H]2C(=O)CO` ?
yes

Hello, I am checking results. What call was entered for `CCN(Cc1c(F)cccc1Cl)c1c([N+](=O)[O-])cc(C(F)(F)F)cc1[N+](=O)[O-]` ?
yes

Hello, I am checking results. What call was entered for `CCCN(CCC)c1c([N+](=O)[O-])cc(C(F)(F)F)c(N)c1[N+](=O)[O-]` ?
yes

Hello, I am checking results. What call was entered for `CN(C)C(=O)Nc1ccc(Cl)c(Cl)c1` ?
yes

Hello, I am checking results. What call was entered for `CCNc1nc(N)nc(Cl)n1` ?
yes

Hello, I am checking results. What call was entered for `CCCCCOC(=O)COc1cc(N2C(=O)C3=C(CCCC3)C2=O)c(F)cc1Cl` ?
yes

Hello, I am checking results. What call was entered for `CCCOC(=O)c1ccc(C(=O)OCCC)nc1` ?
no

Hello, I am checking results. What call was entered for `CCCCOC(=O)[C@@H](C)Oc1ccc(Oc2ccc(C(F)(F)F)cn2)cc1` ?
no

Hello, I am checking results. What call was entered for `CCOC(=O)c1ccc(O)cc1` ?
no

Hello, I am checking results. What call was entered for `O=C(O)c1ccccc1` ?
no

Hello, I am checking results. What call was entered for `C#C[C@]1(O)CC[C@H]2[C@@H]3CCC4=CC(=O)CC[C@@H]4[C@H]3CC[C@@]21CC` ?
no

Hello, I am checking results. What call was entered for `CCCCOCCOCCOCc1cc2c(cc1CCC)OCO2` ?
yes

Hello, I am checking results. What call was entered for `N#CSCSc1nc2ccccc2s1` ?
no

Hello, I am checking results. What call was entered for `CCN(CC)C(=O)c1cccc(C)c1` ?
yes

====

Read-out: Pro-epidermal growth factor (Homo sapiens) (UniProt P01133)
Assay: LTEA_HepaRG_EGF: Life Technologies and Expression Analysis (LTEA) Assay for Epidermal growth factor (EGF) using HepaRG (AID 2283489)
Details: mRNA level, 48 h; actives raise or lower the signal
The source made the active and inactive calls. The calls were made as follows: active = hit-call score of the fitted dose curve at least 0.9, where 1 is the maximum; inactive = score below 0.9.
measurement-name: AC50

Example cases with answers are listed next.
molecule=COC(=O)CSc1cc(N=c2sc(=O)n3n2CCCC3)c(F)cc1Cl result=inactive
molecule=C[C@]12C[C@H](O)[C@H]3[C@@H](CCC4=CC(=O)CC[C@@]43C)[C@@H]1CC[C@@H]2C(=O)CO result=inactive
molecule=O=C(O)C1(C(=O)Nc2ccc(Cl)cc2Cl)CC1 result="31.6 µM (active)"
molecule=CC(C)(C)[C@@H](O)[C@@H](Cc1ccc(Cl)cc1)n1cncn1 result=inactive

// next item, AC50 requested
# query: AC50 of entry C=CCOC(Cn1ccnc1)c1ccc(Cl)cc1Cl (stereo not given)
85 µM (active)

====

Biological target: human Constitutive Androstane Receptor (CAR), NR1I3 (gene 9970) (UniProt Q14994)
Sequence (Q14994 whole entry, looked up): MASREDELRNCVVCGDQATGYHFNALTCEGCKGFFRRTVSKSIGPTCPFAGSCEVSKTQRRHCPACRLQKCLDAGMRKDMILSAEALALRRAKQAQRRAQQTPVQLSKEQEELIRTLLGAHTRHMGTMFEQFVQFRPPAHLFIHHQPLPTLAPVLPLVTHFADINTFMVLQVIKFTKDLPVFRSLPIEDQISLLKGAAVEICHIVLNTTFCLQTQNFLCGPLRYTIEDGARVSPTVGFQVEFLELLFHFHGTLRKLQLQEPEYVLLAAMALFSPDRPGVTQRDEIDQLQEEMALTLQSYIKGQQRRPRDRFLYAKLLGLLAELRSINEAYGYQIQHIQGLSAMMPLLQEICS
Assay: NVS_NR_hCAR_Antagonist: NovaScreen (NVS) Nuclear Receptor Binding Assay for human Constitutive Androstane Receptor Antagonism (CAR) (AID 2283344)
Method: NVS_NR_hCAR_Antagonist is a biochemical, single-readout assay that uses extracted gene-proteins in a cell-free assay. Measurements were taken 1 hour after chemical dosing in a 384-well plate.NVS_NR_hCAR_Antagonist is one of one assay component(s) measured or calculated from the NVS_NR_hCAR_Antagonist assay. […] This assay endpoint, NVS_NR_hCAR_Antagonist, was analyzed in the positive analysis fitting direction relative to DMSO as the negative control and baseline of activity. […]
Results filed as inconclusive are left out. The source made the active and inactive calls. How the source made its calls: active means hit-call score of the fitted dose curve at least 0.9, where 1 is the maximum; inconclusive means response in the unintended direction; inactive means score below 0.9.
measurement-name: AC50

molecule=CCOC(=O)[C@H](C)Oc1ccc(Oc2nc3ccc(Cl)cc3o2)cc1 target_of_assay="human Constitutive Androstane Receptor (CAR), NR1I3 (gene 9970) (UniProt Q14994)" result="0.182 µM (active)"
molecule="CCCCC(CC)COC(=O)c1ccccc1C(=O)O (centres undefined)" target_of_assay="human Constitutive Androstane Receptor (CAR), NR1I3 (gene 9970) (UniProt Q14994)" result=inactive
molecule="CCC(O)=C1C(=O)CC(C(=O)O)CC1=O (centres undefined)" target_of_assay="human Constitutive Androstane Receptor (CAR), NR1I3 (gene 9970) (UniProt Q14994)" result=inactive
molecule="CCCCC(CC)CN1C(=O)C2C3C=CC(C3)C2C1=O (centres undefined)" target_of_assay="human Constitutive Androstane Receptor (CAR), NR1I3 (gene 9970) (UniProt Q14994)" result="12.3 µM (active)"
